Target: recombinant human GCN2 protein (Homo sapiens)
Sequence (Q9P2K8 whole entry): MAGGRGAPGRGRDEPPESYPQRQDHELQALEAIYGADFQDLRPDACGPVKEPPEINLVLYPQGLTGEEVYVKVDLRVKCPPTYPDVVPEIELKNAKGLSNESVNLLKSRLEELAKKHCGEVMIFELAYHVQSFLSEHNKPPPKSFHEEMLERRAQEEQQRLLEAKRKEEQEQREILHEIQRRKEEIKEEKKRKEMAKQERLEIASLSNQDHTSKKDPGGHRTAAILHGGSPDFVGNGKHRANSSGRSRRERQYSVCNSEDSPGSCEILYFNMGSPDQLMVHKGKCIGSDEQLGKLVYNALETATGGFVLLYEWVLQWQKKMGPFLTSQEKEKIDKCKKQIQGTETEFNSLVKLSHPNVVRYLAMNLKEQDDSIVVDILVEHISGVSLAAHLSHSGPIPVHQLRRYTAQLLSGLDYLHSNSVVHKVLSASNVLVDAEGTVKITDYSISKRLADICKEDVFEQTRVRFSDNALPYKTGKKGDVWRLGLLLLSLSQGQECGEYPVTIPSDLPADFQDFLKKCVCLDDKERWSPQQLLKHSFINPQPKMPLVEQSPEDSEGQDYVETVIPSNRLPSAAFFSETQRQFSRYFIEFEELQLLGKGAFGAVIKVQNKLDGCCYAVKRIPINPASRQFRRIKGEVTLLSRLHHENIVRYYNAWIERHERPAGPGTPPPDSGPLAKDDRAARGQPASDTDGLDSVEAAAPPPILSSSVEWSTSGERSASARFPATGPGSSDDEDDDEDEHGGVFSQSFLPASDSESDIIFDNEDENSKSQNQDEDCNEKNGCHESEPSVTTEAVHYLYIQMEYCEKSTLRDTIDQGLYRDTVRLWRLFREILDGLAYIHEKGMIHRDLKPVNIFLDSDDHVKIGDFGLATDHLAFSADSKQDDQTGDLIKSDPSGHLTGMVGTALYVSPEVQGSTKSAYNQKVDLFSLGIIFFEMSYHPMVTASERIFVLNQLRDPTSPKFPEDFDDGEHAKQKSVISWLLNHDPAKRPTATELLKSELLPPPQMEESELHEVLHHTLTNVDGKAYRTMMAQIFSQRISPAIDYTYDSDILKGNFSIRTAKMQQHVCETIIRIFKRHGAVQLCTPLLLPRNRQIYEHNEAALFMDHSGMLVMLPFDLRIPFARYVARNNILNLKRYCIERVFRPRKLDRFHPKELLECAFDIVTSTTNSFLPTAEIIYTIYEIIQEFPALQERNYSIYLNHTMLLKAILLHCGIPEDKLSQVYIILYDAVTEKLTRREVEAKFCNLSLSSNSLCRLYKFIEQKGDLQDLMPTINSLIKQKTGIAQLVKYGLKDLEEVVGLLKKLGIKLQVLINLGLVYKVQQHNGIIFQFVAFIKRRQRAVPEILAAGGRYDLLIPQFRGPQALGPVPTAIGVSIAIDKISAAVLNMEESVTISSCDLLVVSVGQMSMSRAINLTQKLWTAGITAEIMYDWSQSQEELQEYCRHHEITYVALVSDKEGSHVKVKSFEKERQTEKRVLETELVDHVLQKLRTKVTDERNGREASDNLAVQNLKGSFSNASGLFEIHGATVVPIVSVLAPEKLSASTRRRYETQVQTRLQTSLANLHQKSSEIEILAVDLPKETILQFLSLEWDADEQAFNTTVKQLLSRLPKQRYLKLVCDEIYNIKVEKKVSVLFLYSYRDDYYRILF
Assay: General control nonderepressible 2 (GCN2) inhibitory capacity, 33P-ATP filter assay
Conditions: recombinant human GCN2, 70 uM [gamma-33P-ATP], 40 minutes, room temperature
Overview of reported IC50 across a group of molecules:
Measurement kind: IC50

* Cn1c(=O)c(-c2c(F)ccc(NS(=O)(=O)c3ccc(Cl)s3)c2F)cc2cnc(N)nc21 | < 100 nM
* Cn1cc(S(=O)(=O)Nc2ccc(F)c(-c3cc4cnc(N)nc4n(C)c3=O)c2F)c(C(F)(F)F)n1 | 300 to 1000 nM
* Cc1nn(-c2c(F)ccc(NS(=O)(=O)c3c(Cl)nn(C)c3C)c2F)c(=O)c2cnc(N)nc12 | 100 to 300 nM
* Cn1c(=O)c(-c2c(F)ccc(NS(=O)(=O)c3ccc(Cl)nc3)c2F)cc2cnc(N)nc21 | > 1000 nM
* Cc1nn(C)c(C)c1S(=O)(=O)Nc1ccc(F)c(-n2c(=O)c3cnc(N)nc3n(C)c2=O)c1F | 100 to 300 nM
